target_system: human MDM2 protein (amino acids 1-125) (Homo sapiens, UniProt Q00987)
Sequence (Q00987 1-125 limits assumed): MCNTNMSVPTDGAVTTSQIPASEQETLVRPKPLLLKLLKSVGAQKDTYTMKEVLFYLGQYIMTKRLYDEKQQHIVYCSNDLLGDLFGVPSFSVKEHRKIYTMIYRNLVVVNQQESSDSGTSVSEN
procedure_summary: cell-based or functional assay
Positions of bridges follow the written chain, without caps; N, C: chain ends. Non-standard residues stand in square brackets, D forms with d. No end group written: not given here. dPhe(4-CF3) = N[C@H](Cc1ccc(C(F)(F)F)cc1)C(=O)O; dTrp(6-F) = N[C@H](Cc1c[nH]c2cc(F)ccc12)C(=O)O; S8 = C=CCCCCCC[C@](C)(N)C(=O)O; R5 = C=CCCC[C@@](C)(N)C(=O)O
Consider the following binders; for each one, report its P53 activity EC50 (µM) (2% FBS) 16 H.

Ask: # query: P53 activity EC50 (µM) (2% FBS) 16 H of entry [dT][R5][dTrp(6-F)][dY][dA][R5][dPhe(4-CF3)][dE][dK][dL][dL][dR]-NH2 (staple 2-6) [^DPMI-δ(2-6)]
Result: > 50 µM

Ask: # query: P53 activity EC50 (µM) (2% FBS) 16 H of entry [dT][S8][dTrp(6-F)][dY][dA][dN][dPhe(4-CF3)][dE][R5][dL][dL][dR]-NH2 (staple 2-9) [^DPMI-δ(2-9)]
Result: > 50 µM

Ask: # query: P53 activity EC50 (µM) (2% FBS) 16 H of entry [dT][dA][dTrp(6-F)][dY][R5][dN][dPhe(4-CF3)][dE][R5][dL][dL][dR]-NH2 (staple 5-9) [^DPMI-δ(5-9)]
Result: > 50 µM
